B1: Osa-1-4 twister ribozyme (parent)
chain: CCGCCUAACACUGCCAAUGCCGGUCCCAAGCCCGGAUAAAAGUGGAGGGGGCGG

variants of: B1; test: self-cleavage, relative activity (ratio to wild type); higher = more cleavage; co-transcriptional
QUANTITY_KIND: self-cleavage
Give only the figure.

**Query** # query: self-cleavage of entry A16G A41U
**Result** 1.05

New cases:
**Query** # query: self-cleavage of entry C11U G49C
**Result** 0.08

**Query** # repeat for C21U C31U
**Result** 0.97

**Query** # repeat for A29G G13C
**Result** 0.01

**Query** # repeat for G50C U37C
**Result** 1.05

**Query** # repeat for G44U G47C
**Result** 0.07

**Query** # repeat for A8C C9U
**Result** 0.01
